B1: Osa-1-4 twister ribozyme (parent)
chain: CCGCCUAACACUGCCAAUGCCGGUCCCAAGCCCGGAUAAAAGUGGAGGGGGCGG

Variants of: B1
experimentDescription: self-cleavage, relative activity (ratio to wild type); higher = more cleavage; co-transcriptional
Kindly supply the reported self-cleavage values for the records listed here.
Please give only the number in your answer, with no unit.

## Input Report self-cleavage for CCGCCUAACACUGCCAAUGCCGGUCCCAAGCCCGGAUAAACGUGGAUGGGGCGG [A41C G47U] please.
## Output 0.2

## Input Report self-cleavage for CCGCCUAACACUGCCAAUGCCGGUCCCAUGCCCGGAUAAAAGUGGAGGGAGCGG [A29U G50A] please.
## Output 0.13

## Input Report self-cleavage for CCGCCUAACACUGCCAAUGCCGGUCCCAAGCCCGGAGAAAAGUGGAGGGGGCAG [G53A U37G] please.
## Output 0.97

## Input Report self-cleavage for CCGCCUAACACUGCCAAUGCAGGUCCCAAGCCCGGAUAAAAGCGGAGGGGGCGG [C21A U43C] please.
## Output 0.11

## Input Report self-cleavage for CCGCCUAACACUGCCAAUGCCGGUCCCAAGCCCGGAUAAAAGUGGCGGGGUCGG [A46C G51U] please.
## Output 0.05

## Input Report self-cleavage for CCGCCUAACACUGCCAAUGCCGGUCCAAAGCCCGGAUACAAGUGGAGGGGGCGG [A39C C27A] please.
## Output 0.11

## Input Report self-cleavage for CCGCCUAGCACUGCCAAUGCCGGUCCCAAGCCCGGAUAAAAGUCGAGGGGGCGG [A8G G44C] please.
## Output 0.35

## Input Report self-cleavage for CCGCCUAACACUGCCGAUGCCGGUCCCAAGCCCGGAUAAAAGUGGAGGGGGAGG [A16G C52A] please.
## Output 0.97

## Input Report self-cleavage for CCGCCUAACACUGCCAAUGCCAGUCCCAAGCCCGGAUAAAAGUGUAGGGGGCGG [G22A G45U] please.
## Output 0.08

## Input Report self-cleavage for CCGCCUAGCACUGCGAAUGCCGGUCCCAAGCCCGGAUAAAAGUGGAGGGGGCGG [A8G C15G] please.
## Output 0.29

## Input Report self-cleavage for CCGCCUAACACUGCCAAUGCCUGUCCCAAGCCCGGAUAAAAGUGUAGGGGGCGG [G22U G45U] please.
## Output 0.06

## Input Report self-cleavage for CCGCCUAACACUGCCAAUGCCGGUCCCAAGCUCGGCUAAAAGUGGAGGGGGCGG [A36C C32U] please.
## Output 0.07

## Input Report self-cleavage for CCGCCUGACACUGCCAAUGCCGGUCCCAAGUCCGGAUAAAAGUGGAGGGGGCGG [A7G C31U] please.
## Output 0.09

## Input Report self-cleavage for CCGCCUAACACUGCCAAUGCCGGUACCAAGCCAGGAUAAAAGUGGAGGGGGCGG [C25A C33A] please.
## Output 0.05

## Input Report self-cleavage for CCGCCUAACACUGCCAAUGCCGGUCCCAAGCCUGGAAAAAAGUGGAGGGGGCGG [C33U U37A] please.
## Output 0.87

## Input Report self-cleavage for CCGCCUAACACUGCCAAUACCGGUCCCAAGCCCGGAUAAAAUUGGAGGGGGCGG [G19A G42U] please.
## Output 0.06

## Input Report self-cleavage for CCGCCUAACACUGCCAAUGCCGGUCCCAAGCUAGGAUAAAAGUGGAGGGGGCGG [C32U C33A] please.
## Output 0.04

## Input Report self-cleavage for CCGCCUAACACCGCCAAUGCCGGUCCCAAGCCCGGAUAAAACUGGAGGGGGCGG [G42C U12C] please.
## Output 0.08

## Input Report self-cleavage for CCGCCUAACACUGCCACUGCCGGUACCAAGCCCGGAUAAAAGUGGAGGGGGCGG [A17C C25A] please.
## Output 0.04

## Input Report self-cleavage for CCGCCUAACACUGCCAAUGCCGGUCCCAUGCCCGGAUAAAAGUGGAGGGGGCGU [A29U G54U] please.
## Output 0.27

## Input Report self-cleavage for CCGCCUUACACUGCCAAUGCCGCUCCCAAGCCCGGAUAAAAGUGGAGGGGGCGG [A7U G23C] please.
## Output 0.03

## Input Report self-cleavage for CCGCCUAACACUGCCACUGCCGGUCCCAAGCCCGGAUAAAAGUUGAGGGGGCGG [A17C G44U] please.
## Output 0.7

## Input Report self-cleavage for CCGCCUAACACUGCCAAUGCCGGUCCCAAGCCCGGAAAAAAGUGGAGCGGGCGG [G48C U37A] please.
## Output 0.08

## Input Report self-cleavage for CCGCCUAACACUGCCAAUGCCGGUCUCAAGCCCGGAUAAAAGGGGAGGGGGCGG [C26U U43G] please.
## Output 0.15

## Input Report self-cleavage for CCGCCUAACACUGCCGAUGCCGGUCCCAAGCCCGGAUAAAAGUGGAGGUGGCGG [A16G G49U] please.
## Output 0.3

## Input Report self-cleavage for CCGCCUAACACUGCCAAUGCCGGUCCCAAGCCCGGAUAAAAGUGGAGGGGCAGG [C52A G51C] please.
## Output 0.43

## Input Report self-cleavage for CCGCCUAACACUGCCAAUGCCGGUCCCAAGCCCGGAUACAAGUGGAGGGGGGGG [A39C C52G] please.
## Output 0.96

## Input Report self-cleavage for CCGCCUAACACUUCCAAUGGCGGUCCCAAGCCCGGAUAAAAGUGGAGGGGGCGG [C20G G13U] please.
## Output 0.01

## Input Report self-cleavage for CCGCCUAACACUGCCGAUGCCGGUCCCGAGCCCGGAUAAAAGUGGAGGGGGCGG [A16G A28G] please.
## Output 0.6

## Input Report self-cleavage for CCGCCUAACACUGCCAAUGCCGGUCCCAAGCCCGGGUAAAAGUGUAGGGGGCGG [A36G G45U] please.
## Output 0.21

## Input Report self-cleavage for CCGCCUAACACUGCCAAUGCCGGUCCCAAGCCCGGAUAAAAGUGUAGGGCGCGG [G45U G50C] please.
## Output 0.07

## Input Report self-cleavage for CCGCCUAACACUGCCAAUGCCGGUCCCAAGCCGGGAUAGAAGUGGAGGGGGCGG [A39G C33G] please.
## Output 0.07

## Input Report self-cleavage for CCGCCUAACACUGCCAAUGCCGGUCCAAAGCCCGGAUAAGAGUGGAGGGGGCGG [A40G C27A] please.
## Output 0.11

## Input Report self-cleavage for CCGCCUAACACUGCCAAUGCCGGUACCAAGCCCGGAUAAAAGUGGAGGGGGCGC [C25A G54C] please.
## Output 0.08

## Input Report self-cleavage for CCGCCUAACACUGCCAAUGGCGGUUCCAAGCCCGGAUAAAAGUGGAGGGGGCGG [C20G C25U] please.
## Output 0.21

## Input Report self-cleavage for CCGCCUAACACUGCCAAUGCCGGUCCCCAGCCCGGAUAAAAGUGGAGGGAGCGG [A28C G50A] please.
## Output 0.81

## Input Report self-cleavage for CCGCCUAACACUGCCAAUGCCGGUCCCAAGCCGGGAUAACAGUGGAGGGGGCGG [A40C C33G] please.
## Output 0.02

## Input Report self-cleavage for CCGCCUAACACUGCCAAUGCCGGUCCCAAGUCCGGAUUAAAGUGGAGGGGGCGG [A38U C31U] please.
## Output 0.75

## Input Report self-cleavage for CCGCCUAACACUGCCAAUGCCGGUCCCAAGCCCGGAUAAACGUGGAGGGGGAGG [A41C C52A] please.
## Output 0.94

## Input Report self-cleavage for CCGCCUAACACUGCCAAUGCCGGUCCCAAGCCCGGAUAAAAGGGGAGGGGGCUG [G53U U43G] please.
## Output 0.13

## Input Report self-cleavage for CCGCCUAACACUGCCACUGCCGGUCCCAAGCCCGGAUAGAAGUGGAGGGGGCGG [A17C A39G] please.
## Output 0.86

## Input Report self-cleavage for CCGCCUAACACUGCCAAUGCAGGUCCCAAGCCCGGACAAAAGUGGAGGGGGCGG [C21A U37C] please.
## Output 0.78

## Input Report self-cleavage for CCGCCUAAAACUGCCAAUGCCGGUCCCAAGCCCGGAUAAAAGUAGAGGGGGCGG [C9A G44A] please.
## Output 0.47

## Input Report self-cleavage for CCGCCUAAGACUGCAAAUGCCGGUCCCAAGCCCGGAUAAAAGUGGAGGGGGCGG [C15A C9G] please.
## Output 0.14

## Input Report self-cleavage for CCGCCUAACACUGCCAAUGCGGGUCCCUAGCCCGGAUAAAAGUGGAGGGGGCGG [A28U C21G] please.
## Output 0.07

## Input Report self-cleavage for CCGCCUAACACUGCCAAUGCCGGACCCAAGGCCGGAUAAAAGUGGAGGGGGCGG [C31G U24A] please.
## Output 0.04

## Input Report self-cleavage for CCGCCUAACACUGCCUAUGCCGGUCCCAAGCCCGGAUAAUAGUGGAGGGGGCGG [A16U A40U] please.
## Output 0.55

## Input Report self-cleavage for CCGCCUAACACUGCCACUGCCGGUCCCAAGCCCGGAUAAAAGUGGGGGGGGCGG [A17C A46G] please.
## Output 0.05

## Input Report self-cleavage for CCGCCUAACACUGACAAUGCCGGUCACAAGCCCGGAUAAAAGUGGAGGGGGCGG [C14A C26A] please.
## Output 0.05

## Input Report self-cleavage for CCGCCUAACACUGCCAAUGCCGGUCCCAAGCCCGGAUACAAGUGAAGGGGGCGG [A39C G45A] please.
## Output 0.08

## Input Report self-cleavage for CCGCCUAACACUGCCACUGCCGGUCCCAAGCCCGGAUAAAAGUGGAGGGCGCGG [A17C G50C] please.
## Output 0.9

## Input Report self-cleavage for CCGCCUAACACUGCCAAUGCCGGUCCUAAGCCCGGAAAAAAGUGGAGGGGGCGG [C27U U37A] please.
## Output 0.16

## Input Report self-cleavage for CCGCCUAACACUGCCAAUACCGGUCCCAAGCCCGGAUAAAAGUGGAGGGGGCGU [G19A G54U] please.
## Output 0.65

## Input Report self-cleavage for CCGCCUAACACUGCCAAUGCCGGUCCCAAGCCCGGAAUAAAGUGGAGGGGGCGG [A38U U37A] please.
## Output 1.03

## Input Report self-cleavage for CCGCCUAACACUGCCAAUGCCGGUCCCAGGCCCGGAUAAAAGUGGAGGGGGUGG [A29G C52U] please.
## Output 0.34

## Input Report self-cleavage for CCGCCUAACACUGCCAAUGCCGGUCCCAAGCCAGGAUAAAAGUGGAGGGGGCUG [C33A G53U] please.
## Output 0.06

## Input Report self-cleavage for CCGCCUAACACUGCCAAUCCCGGUCCAAAGCCCGGAUAAAAGUGGAGGGGGCGG [C27A G19C] please.
## Output 0.03

## Input Report self-cleavage for CCGCCUAACACUGCCAAUGCAGGUCCCAAGCCCGGAUAAAAGUGGAGGGGGUGG [C21A C52U] please.
## Output 0.86

## Input Report self-cleavage for CCGCCUAACACGGCCAAUGCCGGUCCCAAGCCCGGAUAGAAGUGGAGGGGGCGG [A39G U12G] please.
## Output 0.28

## Input Report self-cleavage for CCGCCUAAAACUGCCAAUGCCGGUCCCAAGCCCGGAUAAAAGUGGAGGGGGCGG [C9A] please.
## Output 0.48

## Input Report self-cleavage for CCGCCUUACACUGCCAAUGCCGGUCGCAAGCCCGGAUAAAAGUGGAGGGGGCGG [A7U C26G] please.
## Output 0.05

## Input Report self-cleavage for CCGCCUGAUACUGCCAAUGCCGGUCCCAAGCCCGGAUAAAAGUGGAGGGGGCGG [A7G C9U] please.
## Output 0.19

## Input Report self-cleavage for CCGCCUAACACUGCCAAUGCCGGUCCCUAGCCCGGAUAAAAGUGGAGGGGGCGG [A28U] please.
## Output 0.96

## Input Report self-cleavage for CCGCCUAACACUGCCAGUGCCGGUCCCAAGCCCGGAUAAAAGUGGAGGGGGCCG [A17G G53C] please.
## Output 0.12

## Input Report self-cleavage for CCGCCUAAUACUGCCAAUGCCGGUCCCAAGCUCGGAUAAAAGUGGAGGGGGCGG [C32U C9U] please.
## Output 0.05

## Input Report self-cleavage for CCGCCUAACACUGCCAAUGCCGGCCCCAAGCCCGGAUAAAAGUGGAGGGAGCGG [G50A U24C] please.
## Output 0.64

## Input Report self-cleavage for CCGCCUAACACUGCCAAUGCCGGUCUCAAGCCCGGAUAAAAGUGGAAGGGGCGG [C26U G47A] please.
## Output 0.08

## Input Report self-cleavage for CCGCCUAACACUGCCAAUACCGGUGCCAAGCCCGGAUAAAAGUGGAGGGGGCGG [C25G G19A] please.
## Output 0.06

## Input Report self-cleavage for CCGCCUAACACCGCCAAUGCCGGUCACAAGCCCGGAUAAAAGUGGAGGGGGCGG [C26A U12C] please.
## Output 0.03

## Input Report self-cleavage for CCGCCUAACACUGCCAAUGCCGGUCCCAAGCCCGGAUAAUAGUGGAGAGGGCGG [A40U G48A] please.
## Output 0.06

Sourced from the RNAGym collection of RNA variant scans (doi:10.1002/anie.201605470)
